# test-target: Nuclear receptor subfamily 1 group I member 2 (Homo sapiens)
# assay-text: Human pregnane X receptor (PXR) small molecule agonists, qHTS assay (AID 1346982); also: nearly all actives have a fitted effect of over 35% in size
# run-parameters: PXR-Luc HepG2, CYP3A4 luciferase reporter, 24 h; series mostly up to 92.4 µM
Records with an inconclusive call do not appear. Active and inactive are the calls of the source. Calls follow the shape of the dose curve; as a rule, active = well fitted activation curve with a large enough effect in the repeat runs; inconclusive = weak or mixed curves; inactive = no such curve, though single readings can be large or run the other way.
experimental-readout: outcome

COC(=O)c1ccccc1Cl
inactive
CCOC(=O)CC(C(C)=O)C(C)=O
inactive
CCc1ncc(C)[nH]1
inactive

* * *

# test-target: Cytochrome P450 2C19 (Homo sapiens) (UniProt P33261)
# Sequence (P33261 whole entry, looked up): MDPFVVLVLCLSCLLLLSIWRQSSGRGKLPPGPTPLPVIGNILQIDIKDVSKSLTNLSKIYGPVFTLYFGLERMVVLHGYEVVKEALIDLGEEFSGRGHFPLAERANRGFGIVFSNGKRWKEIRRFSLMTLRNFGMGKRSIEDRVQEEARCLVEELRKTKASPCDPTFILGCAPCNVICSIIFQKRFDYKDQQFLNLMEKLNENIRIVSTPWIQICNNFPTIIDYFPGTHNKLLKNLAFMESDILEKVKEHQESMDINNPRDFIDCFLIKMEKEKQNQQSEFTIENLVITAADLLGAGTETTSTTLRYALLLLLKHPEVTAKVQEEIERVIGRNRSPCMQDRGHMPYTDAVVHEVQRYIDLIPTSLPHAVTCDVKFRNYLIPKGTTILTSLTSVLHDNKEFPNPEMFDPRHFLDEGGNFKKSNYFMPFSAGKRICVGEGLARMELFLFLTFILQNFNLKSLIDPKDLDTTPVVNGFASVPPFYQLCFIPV
# assay-text: Cytochrome P450 Family 2 Subfamily C Member 19 (CYP2C19) small molecule antagonists: luciferase reporter qHTS assay (AID 1671197); also: nearly all actives have a fitted effect of over 65% in size
# run-parameters: P450-Glo CYP2C19 enzyme, luciferin luminescence, 1 h; series mostly up to 115 µM
Results filed as inconclusive are left out. Calls of active or inactive are those of the source. Calls follow the shape of the dose curve; as a rule, active = well fitted inhibition curve with a large enough effect in the repeat runs; inconclusive = weak or mixed curves; inactive = no such curve, though single readings can be large or run the other way.
Respond using exactly one of the listed classes: yes (1) = active, no (0) = inactive

Input: Assay outcome for `Cc1ccccc1C#N` : what was it?
Output: no (0)

Input: Assay outcome for `C=CC(=O)CC` : what was it?
Output: no (0)

Input: Assay outcome for `CCCCNCC` : what was it?
Output: yes (1)

Input: Assay outcome for `C=CC(=O)OCC[N+](C)(C)C` : what was it?
Output: no (0)

Input: Assay outcome for `CC[N+](C)(CC)CC` : what was it?
Output: no (0)

Input: Assay outcome for `COC(=O)N/N=C/c1c[n+]([O-])c2ccccc2[n+]1[O-]` : what was it?
Output: no (0)

Input: Assay outcome for `O=C(O)Cc1ccccc1Oc1ccc(Cl)cc1Cl` : what was it?
Output: no (0)

Input: Assay outcome for `CC/C=C\CCOC(=O)c1ccccc1` : what was it?
Output: no (0)

Input: Assay outcome for C=CC(C)(CCC=C(C)C)OC(=O)C(C)C (configuration not stated) : what was it?
Output: yes (1)

Input: Assay outcome for `CO/N=C(\C(=O)O)c1csc(NC(=O)CCl)n1` : what was it?
Output: no (0)

Input: Assay outcome for `CN(C)CCC[C@@]1(c2ccc(F)cc2)OCc2cc(C#N)ccc21` : what was it?
Output: no (0)

Input: Assay outcome for CCCC(C)C(O)CC (configuration not stated) : what was it?
Output: no (0)

Input: Assay outcome for N[C@H]1C(O)O[C@H](CO)[C@@H](O)[C@@H]1O (some centres not stated) : what was it?
Output: no (0)

Input: Assay outcome for `COc1ccc2cc(CCC(C)=O)ccc2c1` : what was it?
Output: yes (1)

Input: Assay outcome for `CCCC(=O)OC` : what was it?
Output: no (0)

Input: Assay outcome for `CCCCOCCCC` : what was it?
Output: no (0)

Input: Assay outcome for `CCOC(=O)CC` : what was it?
Output: no (0)

Input: Assay outcome for `O=C(O)CCCCCCCCCC(=O)O` : what was it?
Output: no (0)

Input: Assay outcome for `Cc1cc(N)no1` : what was it?
Output: no (0)

Input: Assay outcome for `C[C@]12C=CC(=O)C=C1[C@@H](F)C[C@@H]1[C@@H]2[C@@H](O)C[C@@]2(C)[C@H]1CC[C@]2(O)C(=O)CO` : what was it?
Output: no (0)

Input: Assay outcome for `C=CCOC(=O)CCCCCCCC` : what was it?
Output: no (0)

Input: Assay outcome for `CC(=O)c1c(C)cc(C(C)(C)C)cc1C` : what was it?
Output: yes (1)
